Recorded values, source patent US10640495B2.

- ASSAY_REMARKS: Clearance test, intravenous administration in SD rats (Test Example 7)
- Assay type: in vivo
- MEASUREMENT_SETUP: rat, plasma, intravenous administration 0.5 mg/kg or 1 μmol/kg, read-out: Total Clearance (CLtot)
TEST_READOUT: clearance (mL/min/kg)

{"MOLECULE": "COCCN1C[C@@H](NC(=O)Nc2c(C)c(-c3cnc(OC)nc3)nn2-c2ccccc2)[C@H](c2cnc(F)c(F)c2)O1 (racemic)", "clearance (mL/min/kg)": 7.93}

A = COCCN1C[C@@H](NC(=O)Nc2c(C)c(-c3cnc4c(c3)nnn4C)nn2-c2ccccc2)[C@H](c2ccnc(F)c2)O1 (racemic)
B = COCCN1C[C@@H](NC(=O)Nc2c(C)c(-c3cnc4c(cnn4C)c3)nn2-c2ccccc2)[C@H](c2ccnc(F)c2)O1 (racemic)
## Task Between A and B , whose measured clearance reads higher? Indicate your choice by writing its label.
## Result A
